Data provenance is paper PMC8380212.

# Tested on: HT-1080-FAP xenografts
# Assay Info: Small animal PET imaging
# Type: in vivo, BALB/c nu/nu mice
# Cond: HT1080-FAP transplanted nude mice, 57 min
Let's look at some molecules and their measured Tumor Uptake (SUVmean) 57 min.
Measured Quantity: Tumor Uptake (SUVmean) 57 min

N#C[C@@H]1CC(F)(F)CN1C(=O)CNC(=O)c1ccnc2ccc(OCCCN3CCN(C(=O)CN4CCN(CC(=O)O)CCN(CC(=O)O)CC4)CC3)cc12 [FAPI-42] :: 0.73
C[N+](C)(C)c1ccc(C(=O)N2CCN(CCCOc3ccc4nccc(C(=O)NCC(=O)N5CC(F)(F)C[C@H]5C#N)c4c3)CC2)cn1 [FAPI-73] :: 0.42
N#C[C@@H]1CCCN1C(=O)CNC(=O)c1ccnc2ccc(OCCCN3CCN(C(=O)CN4CCN(CC(=O)O)CCN(CC(=O)O)CC4)CC3)cc12 [FAPI-74] :: 1.91
CN(CCCN1CCN(C(=O)CN2CCN(CC(=O)O)CCN(CC(=O)O)CC2)CC1)c1ccc2nccc(C(=O)NCC(=O)N3CC(F)(F)C[C@H]3C#N)c2c1 [FAPI-52] :: 0.47
CN(CCCN1CCN(C(=O)c2ccc([N+](C)(C)C)nc2)CC1)c1ccc2nccc(C(=O)NCC(=O)N3CC(F)(F)C[C@H]3C#N)c2c1 [FAPI-72] :: 0.13
N#C[C@@H]1CC(F)(F)CN1C(=O)CNC(=O)c1ccnc2ccc(OCCCN3CCN(C(=O)[C@H](CC(C(=O)O)C(=O)O)NC(=O)CN4CCN(CC(=O)O)CCN(CC(=O)O)CC4)CC3)cc12 [FAPI-75] :: 2.24
